# STK11 functional score per entry
B1: library; numbered along this chain (parent)
chain: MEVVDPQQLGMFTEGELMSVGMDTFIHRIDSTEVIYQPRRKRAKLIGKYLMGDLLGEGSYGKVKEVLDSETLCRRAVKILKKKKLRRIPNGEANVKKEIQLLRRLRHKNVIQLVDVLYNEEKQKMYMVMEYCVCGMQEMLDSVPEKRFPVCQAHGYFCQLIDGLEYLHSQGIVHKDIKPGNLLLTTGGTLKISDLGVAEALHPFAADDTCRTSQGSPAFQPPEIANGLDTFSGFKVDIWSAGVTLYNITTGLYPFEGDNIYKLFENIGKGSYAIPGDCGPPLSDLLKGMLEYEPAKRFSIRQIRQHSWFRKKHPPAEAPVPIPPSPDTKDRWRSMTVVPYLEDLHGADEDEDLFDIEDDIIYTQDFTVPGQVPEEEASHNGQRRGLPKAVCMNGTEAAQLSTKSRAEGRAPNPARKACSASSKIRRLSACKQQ

variants of: B1; assay: STK11 functional score (HeLa growth suppression), rescaled enrichment; synonymous median = 1, nonsense median = 0 (normalised score); details: with HeLa; variant type: missense

Request: Consider the variant shown here: Y253G What is its recorded STK11 functional score?
Result: 0.758

Request: Consider the variant shown here: Q100Y What is its recorded STK11 functional score?
Result: 0.248

Values were extracted from the supplement of paper PMC12338614.
